Assignment: determine reported Activity for the given molecules.
# experimental_target: Toll-like receptor 1/2 (Mus musculus) (UniProt Q9QUN7+Q9EPQ1)
# assay_text: Agonist activity at TLR1/TLR2 in wild type C57BL/6J mouse macrophages assessed as stimulation of TNF alpha release measured for 4 hrs by ELISA based assay relative to diprovocim-1
# Assay type: cell-based
# Parameters: concentration or dose not given beside the values
# conditions_used: Macrophage, filed as agonist
Answers are plain numbers, in %.

{"record_smiles": "NCCCCCCCCCCCCNC(=O)[C@@H]1CN(C(=O)c2ccc(C(=O)N3C[C@@H](C(=O)N[C@H]4C[C@@H]4c4ccccc4)[C@H](C(=O)N[C@H]4C[C@@H]4c4ccccc4)C3)cc2)C[C@H]1C(=O)N[C@H]1C[C@@H]1c1ccccc1", "unit_text": "%", "value": 130}

Could you now look at the following molecule, please?
Task item: Lab note: need Activity with Toll-like receptor 1/2 (Mus musculus) (UniProt Q9QUN7+Q9EPQ1) for entry "CC(C)(C)OC(=O)NCC(=O)NCC(=O)OCCCCCCCCCCCCNC(=O)[C@@H]1CN(C(=O)c2ccc(C(=O)N3C[C@@H](C(=O)N[C@H]4C[C@@H]4c4ccccc4)[C@H](C(=O)N[C@H]4C[C@@H]4c4ccccc4)C3)cc2)C[C@H]1C(=O)N[C@H]1C[C@@H]1c1ccccc1" , please look it up.
Reply: 110
